# SYSTEM_TESTED: arginase II (ARG II) (Homo sapiens, UniProt P78540)
# Sequence (P78540 23-354): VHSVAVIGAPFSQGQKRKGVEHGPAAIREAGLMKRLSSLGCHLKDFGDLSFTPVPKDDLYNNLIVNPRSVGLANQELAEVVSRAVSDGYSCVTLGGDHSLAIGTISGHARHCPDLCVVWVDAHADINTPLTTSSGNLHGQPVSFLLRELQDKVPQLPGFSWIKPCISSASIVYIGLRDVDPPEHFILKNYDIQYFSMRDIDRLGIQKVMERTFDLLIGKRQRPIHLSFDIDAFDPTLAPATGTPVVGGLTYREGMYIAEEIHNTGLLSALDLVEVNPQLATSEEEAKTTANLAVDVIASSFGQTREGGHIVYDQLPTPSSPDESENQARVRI
# METHOD_SUMMARY: Inhibition of arginase II, spectrophotometric urea assay at 530 nm
# Type: biochemical
# DETAILS: Formula I compounds, Table 2; read-out: Potency (ARG II)
pIC50: −log10 of the molar value. Structures can show the parent of a compound that is named as a salt.
METRIC: pIC50

• CNC(CCCCB(O)O)(CCCNCc1ccc(Cl)cc1)C(=O)O (stereo not shown) [compound 139, dihydrochloride] = 6.60 to 10.00
• COC[C@H]1CCCN1CC[C@](N)(CCCCB(O)O)C(=O)O [compound 3, dihydrochloride] = 5.70 to 6.00
• NCCN(CCC(N)(CCCCB(O)O)C(=O)O)Cc1ccccc1 (stereo not shown) [compound 73, trihydrochloride] = 6.00 to 6.60
• CC(C)CCN1Cc2ccccc2CC1CCC(N)(CCCCB(O)O)C(=O)O (stereo not shown) [compound 133, dihydrochloride] = 6.60 to 10.00
• NC(CCCCB(O)O)C(=O)c1ccccc1 (stereo not shown) [compound 114, hydrochloride] = < 5.30
• NC(CO)(CCCCB(O)O)C(=O)O (stereo not shown) [compound 82, hydrochloride] = 5.30 to 5.70
• NC(CCCCB(O)O)(CCCOc1ccc(Cl)cc1)C(=O)O (stereo not shown) [compound 96, hydrochloride] = 5.70 to 6.00

Sourced from patent US9994594B2
